All figures here come from paper PMC10610090.

assay name: MTT cytotoxicity assay in Huh-7 cells
Assay type: cell-based
applied conditions: human
Peptide text beside a SMILES is read from it. * marks the point of attachment. Galloyl = O=C(c1cc(O)c(O)c(O)c1)*
measure: CC50 at 24 h

Entry CC(C)C[C@H](NC(=O)[C@H](CCCCN)NC(=O)[C@H](CCCCN)NC(=O)[C@H](CC(C)C)NC(=O)[C@H](C)NC(=O)[C@H](CCCCN)NC(=O)[C@H](CCCCN)NC(=O)[C@H](CC(C)C)NC(=O)[C@H](C)NC(=O)[C@H](CCCCN)NC(=O)[C@H](CC(C)C)NC(=O)[C@H](C)NC(=O)[C@H](CC(C)C)NC(=O)[C@H](C)NC(=O)[C@H](Cc1ccccc1)NC(=O)c1cc(O)c(O)c(O)c1)C(=O)O [PSSct1905, GA-FALALKALKKALKKL-COOH] (Galloyl-FALALKALKKALKKL-OH) needs its CC50 at 24 h filled in; supply it.
205 µM
